Target: T1, human TREM2 on the cell surface (human, UniProt Q9NZC2 19-230)
T1 construct: also called surface TREM2; TREM2 expressed in HEK293-H6 cells
T1 sequence: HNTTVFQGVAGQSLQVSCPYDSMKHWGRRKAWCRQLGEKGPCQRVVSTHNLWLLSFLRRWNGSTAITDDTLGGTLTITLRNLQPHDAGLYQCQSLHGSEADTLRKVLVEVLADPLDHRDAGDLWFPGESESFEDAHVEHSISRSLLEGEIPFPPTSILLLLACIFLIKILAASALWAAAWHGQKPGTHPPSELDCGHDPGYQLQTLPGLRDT
Experiment: cell binding, human macrophages, dose titration
Listed here: items and their measured EC50.

{"BINDER": "CL0020141 (antibody, V domains shown, also called Clone CL0020141) VH: EVTLVESGGGLVQPGGSLRLSCATSGFTFTDYYMSWVRQPPGKALEWLGFIRDKANGYTTDYSASVKGRFTISRDNSQNILYLQMNTLRAEDSATYYCSRLLRAQGFAYWGQGTLVTVSA VL: DIVMSQSPSSLGVSIGEKVIMSCTSGQSLLYSNNQKNYLAWYQQKPGQSPKLLIYWASTRESGVPDRFTGSGSGTDFTLTINSVKAEDLAVYYCQQYYRNPFTFGSGTKLEIK", "EC50 (nM)": 0.6}
{"BINDER": "CL0020308 (antibody, V domains shown, also called Clone CL0020308) VH: QVQLKQSGPSLVQPSQSLSITCTVSGFSLTTYGIHWVRQSPGKGLEWLGVIWTGGSTAFNAAFMSRLSITKDNSKSQVFFKMNSLQADDTAIYYCAKVGFHSATDYWGQGTSVTVSS VL: DVLMTQTPLSLPVTLGDQASISCRSSQNLVHSNGNTYLEWYLQKPGQSPKLLIYKVSNRFSGVPDRFSGSGSGTDFTLKISRVEAEDLGLYYCFQGSHVPFTFGSGTKLEIK", "EC50 (nM)": 0.6}
{"BINDER": "CL0020113 (antibody, V domains shown, also called Clone CL0020113) VH: QIQLVQSGPELKKPGESLKISCKASGYTFTDYAMQWVKQAPGKGLQYMGWINTQTGKPTYADDFKERFVFSLETSASTAYLKINNLKNDDMATYLCARSYGGEYNWIAYWGQGTLVTVSS VL: DIVMTQTPSSQAVSAGEKVTMNCKSSQSLLYNENKKNYLAWYQQKPGQSPKLLIYWASTRESGVPDRFIGSGSGTDFTLTISSVQAEDLAVYYCQQSYNFPPTFGGGTKLELK", "EC50 (nM)": 2.1}

Values compiled from patent US20220119522A1.
